- Test system: Rattus norvegicus
- experimental_details: Mean excretion of potassium in conscious rats at a dose of 30 mg/kg given orally
- Type: ADME, organism-based
- Design: dose 30 mg/kg, route oral
- assay_conditions: in vivo, po
Listed here: items and their measured Mean excretion of K+.
The response must be a number in m equiv with no trailing unit.

Reference set, count: 2
{"columns": ["compound", "metric_name", "measured_number"],
 "data": [
  ["CN(C)CCc1nnc2n1-c1ccc(Br)cc1C(c1ccccc1)=NC2", "Mean excretion of K+", 0.16],
  ["COc1ccc(C(CN(C)C)c2nnc3n2-c2ccc(Cl)cc2C(c2ccccc2)=NC3)cc1 (stereo not given)", "Mean excretion of K+", 0.18]
]}

Param item = CN(C)CC(c1ccccc1)c1nnc2n1-c1ccc(Br)cc1C(c1ccccc1)=NC2 (stereo not given) ; retrieve measured Mean excretion of K+.
0.17

Same again, this time with I.NCC(c1ccccc1)c1nnc2n1-c1ccc(Cl)cc1C(c1ccccc1)=NC2 (stereo not given)
0.28

Same again, this time with COc1cccc(C(CN(C)C)c2nnc3n2-c2ccc(Cl)cc2C(c2ccccc2)=NC3)c1 (stereo not given)
0.24

====

- Test system: Rattus norvegicus
- experimental_details: Mean excretion of potassium in conscious rats at a dose of 100 mg/kg given orally
- Format: ADME, organism-based
- Parameters: dose 100 mg/kg, route oral
- assay_conditions: in vivo, po
Listed here: items and their measured Mean excretion of K+.
The response must be a number in m equiv with no trailing unit.

Reference set, count: 6
{"columns": ["compound", "Mean excretion of K+ / m equiv"],
 "data": [
  ["NS(=O)(=O)c1cc(C(=O)O)c(NCc2ccco2)cc1Cl [FUROSEMIDE]", 0.67],
  ["CN(C)CC(c1ccccc1)c1nnc2n1-c1ccc(Br)cc1C(c1ccccc1)=NC2 (stereo not given)", 0.15],
  ["CN(C)CC(c1ccccc1)c1nnc2n1-c1ccc(Cl)cc1C(c1ccccc1)=NC2 (stereo not given)", 0.27],
  ["CSc1ccc2c(c1)C(c1ccccc1)=NCc1nnc(C(CN(C)C)c3ccccc3)n1-2 (stereo not given)", 0.28],
  ["CN(C)CC(c1ccccc1Cl)c1nnc2n1-c1ccc(Cl)cc1C(c1ccccc1)=NC2 (stereo not given)", 0.22],
  ["COc1ccccc1C(CN(C)C)c1nnc2n1-c1ccc(Cl)cc1C(c1ccccc1)=NC2 (stereo not given)", 0.26]
]}

Param item = `Nc1nc(N)c2nc(-c3ccccc3)c(N)nc2n1` ; retrieve measured Mean excretion of K+.
0.06

Same again, this time with I.NCC(c1ccccc1)c1nnc2n1-c1ccc(Cl)cc1C(c1ccccc1)=NC2 (stereo not given)
0.27

Same again, this time with `CN(C)CCc1nnc2n1-c1ccc(Br)cc1C(c1ccccn1)=NC2`
0.41

Same again, this time with CC1N=C(c2ccccc2)c2cc(Cl)ccc2-n2c1nnc2C(CN(C)C)c1ccccc1 (stereo not given)
0.21

====

Listed here: items and their measured Mean excretion of Na+.
- Test system: Rattus norvegicus
- experimental_details: Mean excretion of […] in conscious rats at a dose of 1.0 mg/kg given orally
- Assay type: ADME, organism-based
- Set-up: dose 1 mg/kg, route oral
- assay_conditions: in vivo, po

{"columns": ["compound", "result"],
 "data": [
  ["CC1N=C(c2ccccc2)c2cc(Cl)ccc2-n2c1nnc2C(CN(C)C)c1ccccc1 (stereo not given)", "0.82 m equiv"],
  ["Nc1nc(N)c2nc(-c3ccccc3)c(N)nc2n1", "0.6 m equiv"],
  ["COc1ccc(C(CN(C)C)c2nnc3n2-c2ccc(Cl)cc2C(c2ccccc2)=NC3)cc1 (stereo not given)", "0.66 m equiv"]
]}

Param item = COc1cccc(C(CN(C)C)c2nnc3n2-c2ccc(Cl)cc2C(c2ccccc2)=NC3)c1 (stereo not given) ; retrieve measured Mean excretion of Na+.
0.64 m equiv

Same again, this time with NS(=O)(=O)c1cc(C(=O)O)c(NCc2ccco2)cc1Cl [FUROSEMIDE]
0.83 m equiv

Same again, this time with `CN(C)CCc1nnc2n1-c1ccc(Br)cc1C(c1ccccc1)=NC2`
0.65 m equiv

Same again, this time with CN(C)CC(c1ccccc1)c1nnc2n1-c1ccc(I)cc1C(c1ccccc1)=NC2 (stereo not given)
0.65 m equiv

Same again, this time with CN(C)CC(c1ccccc1)c1nnc2n1-c1ccc(Cl)cc1C(c1ccccc1)=NC2 (stereo not given)
0.81 m equiv
